ASSAY_TARGET: turkey β3C-adrenoceptor (tβ3C) (Meleagris gallopavo, UniProt A0A803YLI8)
Sequence (A0A803YLI8 entry or part of it): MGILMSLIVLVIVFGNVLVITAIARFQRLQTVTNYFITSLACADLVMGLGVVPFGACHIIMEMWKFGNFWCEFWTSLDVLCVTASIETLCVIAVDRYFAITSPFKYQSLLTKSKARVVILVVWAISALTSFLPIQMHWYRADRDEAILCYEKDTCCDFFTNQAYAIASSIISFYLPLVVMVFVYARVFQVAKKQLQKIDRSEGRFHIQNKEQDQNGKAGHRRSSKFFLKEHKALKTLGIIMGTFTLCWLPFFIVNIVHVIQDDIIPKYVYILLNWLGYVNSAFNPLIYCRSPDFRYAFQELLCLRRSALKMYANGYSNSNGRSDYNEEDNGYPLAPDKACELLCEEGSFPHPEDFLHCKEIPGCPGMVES
PROTOCOL_DESCRIPTION: CRE-SPAP production, CHO tβ3C cells
Assay type: cell-based
SETUP_CONDITIONS: Log KD ICI118551, vs agonist salbutamol, CRE-SPAP, CHO tβ3C cells
READOUT_KIND: pKd
pKd is defined as minus the log10 of a concentration measured in mol/L.

Look at this compound and give its reported pKd. Cc1ccc(OCC(O)C(C)NC(C)C)c2c1CCC2 (stereo not shown) [ICI118551]
9.31

====

ASSAY_TARGET: turkey β3C-adrenoceptor (tβ3C) (Meleagris gallopavo, UniProt A0A803YLI8)
PROTOCOL_DESCRIPTION: CRE-SPAP production, CHO tβ3C cells
Format: cell-based
SETUP_CONDITIONS: Log KD ICI118551, vs agonist isoprenaline, CRE-SPAP, CHO tβ3C cells
READOUT_KIND: Kd (nM)
Express your answer in nM, writing the number without its unit.

Using the record for Cc1ccc(OCC(O)C(C)NC(C)C)c2c1CCC2 (stereo not shown) [ICI118551] , report its Kd.
2.51
